Reference for the values: patent US20070196374A1

# experimental_target: T1, VEGF (human, UniProt P15692-4 27-191, limits assumed)
# T1 construct: also called vascular endothelial growth factor; biotinylated VEGF
# experiment_description: BIAcore-2000 SPR, wt = Y0192
measurement_name: Kd (wt)/Kd (ratio)
Answers are plain numbers, in ratio.

Known results for binders:
Y0243-1 (Fab, V domains shown, Soluble Fab from E. coli 34B8) VH: EVQLVESGGGLVQPGGSLRLSCAASGYDFTHYGMNWVRQAPGKGLEWVGWINTYTGEPTYAADFKRRFTFSLDTSKSTAYLQMNSLRAEDTAVYYCAKYPHYYGSSHWYFDVWGQGTL VL: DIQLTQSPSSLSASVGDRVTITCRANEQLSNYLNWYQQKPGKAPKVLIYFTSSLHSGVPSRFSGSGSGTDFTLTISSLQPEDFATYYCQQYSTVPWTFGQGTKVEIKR | 4.1
Y0238-5 (Fab, V domains shown, Clone of library YC-81 on the pY0192 template; Soluble Fab) VH: EVQLVESGGGLVQPGGSLRLSCAASGYTFTNYGINWVRQAPGKGLEWVGWINTYTGEPTYAADFKRRFTFSLDTSKSTAYLQMNSLRAEDTAVYYCAKYPYYIAKSHWYFDVWGQGTL VL: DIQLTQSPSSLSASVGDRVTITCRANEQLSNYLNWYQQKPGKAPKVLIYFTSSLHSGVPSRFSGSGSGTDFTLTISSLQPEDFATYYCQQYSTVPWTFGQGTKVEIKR | 3.2

Query string: Kd (wt)/Kd lookup needed for Y0238-1 (Fab, V domains shown, Clone of library YC-81 on the pY0192 template; Soluble Fab) VH: EVQLVESGGGLVQPGGSLRLSCAASGYTFTNYGINWVRQAPGKGLEWVGWINTYTGEPTYAADFKRRFTFSLDTSKSTAYLQMNSLRAEDTAVYYCAKYPYYRGTSHWYFDVWGQGTL VL: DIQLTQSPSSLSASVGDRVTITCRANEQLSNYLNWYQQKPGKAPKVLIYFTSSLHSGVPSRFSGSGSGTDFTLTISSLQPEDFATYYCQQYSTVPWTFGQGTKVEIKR , thanks.
Result string: 7.3
